Data origin: PubChem BioAssay

# MEASURED_ON: Alpha-2C adrenergic receptor (Homo sapiens) (UniProt P18825)
# Sequence (P18825 whole entry, looked up): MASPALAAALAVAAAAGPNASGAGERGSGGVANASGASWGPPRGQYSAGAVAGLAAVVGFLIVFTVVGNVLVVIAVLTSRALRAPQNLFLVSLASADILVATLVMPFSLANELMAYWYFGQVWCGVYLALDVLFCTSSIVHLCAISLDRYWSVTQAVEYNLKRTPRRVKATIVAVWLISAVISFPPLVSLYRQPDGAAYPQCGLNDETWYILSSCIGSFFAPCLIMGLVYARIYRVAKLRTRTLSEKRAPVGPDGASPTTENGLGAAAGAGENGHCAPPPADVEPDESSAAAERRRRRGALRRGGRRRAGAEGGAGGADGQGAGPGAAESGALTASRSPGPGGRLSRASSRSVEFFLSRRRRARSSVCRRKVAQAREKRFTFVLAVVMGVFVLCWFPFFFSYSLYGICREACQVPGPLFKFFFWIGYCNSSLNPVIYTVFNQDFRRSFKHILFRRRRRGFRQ
# ASSAY_SUMMARY: modulators of alpha2C/GIRK thallium flux, primary screen, cell-based, HEK293 alpha2C/GIRK1/2 (AID 624);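 note: slope of fluorescence ratio to pre-addition baseline per second over 15 to 24 s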
# RUN_CONDITIONS: thallium flux BTC fluorescence, at 10 µM, actives lie on both sides
OUTCOME_MEASURE: slope
Give bare numbers.

Before answering, review these 10 worked examples.
CC(C)(C)C1=Nn2c(nnc2-c2ccco2)SC1	0.00705
Cc1cc(NS(=O)(=O)c2ccc(N)cc2)no1	0.00461
COc1ccc2c(c1)c(CC(=O)OCC(=O)O)c(C)n2C(=O)c1ccc(Cl)cc1	0.00555
CN1CCN(c2nc(C(N)=O)cc(-c3ccccc3)n2)CC1	0.00569
COc1cccc(C2=CC(c3ccccc3)n3ncnc3N2)c1 (stereo not given)	0.00478
COC(=O)c1ccc(Oc2nc3ccccc3n3c(C)nnc23)cc1	0.00622
Cn1c(=O)c2c3c(sc2n2c(SCc4ccccc4)nnc12)CCCC3	0.00552
CC(=O)OCC(=O)[C@H]1CC[C@H]2[C@@H]3CCC4=CC(=O)CC[C@]4(C)[C@H]3CC[C@]12C	0.00411
COc1ccccc1-c1cc(-c2cc(Cl)ccc2O)n[nH]1	0.0086
CC(C)(C)c1cccc(/C=N/O)c1O	0.00592

Give one value of slope per listed molecule.
1. CCC1CCCCN1c1nc(-c2ccncc2)nc2ccccc12 (stereo not given)
2. CC(C)c1nc2n[nH]c(N)c2c2c1CCC2
3. COC(=O)C1=C(N)Oc2cc(C)oc(=O)c2C1c1ccncc1 (stereo not given)
4. Cc1ccc(C)n1Cc1ccc(C(=O)O)cc1
5. CCN(CC)CCCN1C(=O)C(O)=C(C(=O)c2ccc(C)o2)C1c1ccc(C)o1 (stereo not given)

[0.00736, 0.007, 0.00558, 0.00514, 0.00555]

* * *

Exercise: state measured inhibition for each of the compounds provided.
# MEASURED_ON: Dual specificity protein phosphatase 6 (Homo sapiens)
# ASSAY_SUMMARY: DUSP6 inhibitors restoring Erk phosphorylation by chemical complementation, primary imaging in DUSP6-transfected HeLa (AID 609);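 note: phospho-Erk level distribution per well compared with pooled transfected vehicle control wells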
# RUN_CONDITIONS: HeLa MKP-3 transfected, phospho-Erk imaging KS statistic; at 10 µM; hits give high values; cells stimulated with TPA for 15 min
One number for each entry, in %.

Worked examples, 4 compounds total:
CC(C)c1cc(NCCN2CCOCC2)n2c(nc3ccccc32)c1C#N	10.1
CN(C)CCCN1C(=O)C(O)=C(C(=O)c2cc3ccccc3o2)C1c1ccccn1 (stereo unspecified)	12.3
Cc1nc2sc(C#N)c(N)c2c2c1CCCC2	9.07
CC(C)C1Cc2c(sc3c2c(=O)n(Cc2ccccc2)c2nncn32)CO1 (stereo unspecified)	9.61

Quick one: give me inhibition for each item below, same order please.
1. CC(=O)c1cc(CN2CCCCC2)cc(OC(C)C)c1
2. CCOc1ccc(C2/C(=C(/O)c3ccc(OC)cc3)C(=O)C(=O)N2c2cc(C)on2)cc1OC (stereo unspecified)

-3.98
-5.26

* * *

# ASSAY_SUMMARY: inhibitors of mutant huntingtin aggregation, primary screen, imaging, exon1htt(103Q)mCFP cells, high-content imaging (AID 483);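 note: compound exposure lasted 3 days before fixation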
# RUN_CONDITIONS: exon1htt(103Q)mCFP cell line, aggregate imaging, at 2 µM; hits give high values
Response key: True means inhibition of aggregation >= -10%; False means inhibition of aggregation < -10%.

Please review the following examples before continuing.
CCC(NC(C)C)C(O)c1ccc(O)c(O)c1 (configuration not stated)	True
CCCCC[C@H](O)/C=C/C1=C(CCCCCCC(=O)O)C(=O)CC1	False
Clc1ccc(-n2ncc3c(NCCCn4ccnc4)ncnc32)cc1	False
COc1ccc(-n2c(SCC(N)=O)nc3sc4c(c3c2=O)CCN(C)C4)cc1	True
Cc1cc(C)nc(NC2=NCC(=O)N2c2ccc(Cl)cc2)n1	True

Does the reported inhibition of aggregation for `CCSC(SCC)[C@H](O)[C@@H](O)[C@H](O)[C@H](O)CO` fall at or above the -10% mark?
True

// same read-out, input: `OCCNC1=NCCN1`
True
